- Test system: human spermatozoa;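 further: pooled live human sperm from at least 3 donors, tracked by automated microscopy in 0.5 s time-lapse movies, compounds at 10 and 30 µM, versus median of 16 DMSO wells per plate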
- assay_protocol: progressively motile sperm, percent change vs DMSO (non-capacitating); higher = more of the measured sperm population than DMSO, for viability, fewer PI-positive (dead) cells than DMSO; extreme values may be limits of the assay
- conditions_used: incubation time: 10min incubation, 29.9 µM
Counter-ions that a name gives are not always drawn.
observable: progressively motile sperm (%)
Kindly provide the numeric value in % only, without the unit symbol.

### Prompt So what's the measured progressively motile sperm for this one? CC(C)c1ccc2c(c1)CC[C@H]1[C@](C)(CN)CCC[C@]21C [Leelamine hydrochloride]
### Response -12.8

### Prompt So what's the measured progressively motile sperm for this one? CCCCCCCCCCCCCCCCOCC(COCC(F)(F)F)OP(=O)([O-])OC (configuration not stated) [MJ33]
### Response 11.9

### Prompt So what's the measured progressively motile sperm for this one? Oc1c(Cl)cc(Cl)c(Cl)c1Cc1c(O)c(Cl)cc(Cl)c1Cl [Hexachlorophene]
### Response -48.4

### Prompt So what's the measured progressively motile sperm for this one? COc1cc(C(=O)N2CCC(N3CCN(C)CC3)CC2)ccc1Nc1ncc2c(n1)N(C)c1ccccc1C(=O)N2C [LRRK2-IN-1]
### Response 27.8

### Prompt So what's the measured progressively motile sperm for this one? Nc1nonc1C(=O)c1cccc(OCc2nc3ccccc3[nH]2)c1 [ASI-8]
### Response -2.99

### Prompt So what's the measured progressively motile sperm for this one? COCC(=O)O[C@]1(CCN(C)CCCc2nc3ccccc3[nH]2)CCc2cc(F)ccc2[C@@H]1C(C)C [Mibefradil]
### Response 0.528

### Prompt So what's the measured progressively motile sperm for this one? c1cnc2c(c1)ccc1cccnc12 [Phenanthroline]
### Response -0.36

### Prompt So what's the measured progressively motile sperm for this one? COc1cc2nc(N(C)CCCNC(=O)C3CCCO3)nc(N)c2cc1OC (configuration not stated) [Alfuzosin]
### Response -1.83

### Prompt So what's the measured progressively motile sperm for this one? O=S(=O)(NCCNC/C=C/c1ccc(Br)cc1)c1cccc2cnccc12 [H 89 dihydrochloride]
### Response 3.24

### Prompt So what's the measured progressively motile sperm for this one? NC(=O)c1cccnc1 [Nicotinamid]
### Response 14.2

### Prompt So what's the measured progressively motile sperm for this one? Nc1ccc(-c2ccc3ncc4ccc(=O)n(-c5cccc(C(F)(F)F)c5)c4c3c2)cn1 [Torin 2]
### Response 34.7

### Prompt So what's the measured progressively motile sperm for this one? "COc1cc(N2CCOCC2)ccc1Nc1ncc(F)c(Nc2ccccc2NS(C)(=O)=O)n1"
### Response -60.9

### Prompt So what's the measured progressively motile sperm for this one? CC(C)Cn1c(=O)n(C)c(=O)c2[nH]cnc21 [IBMX]
### Response 35.7

### Prompt So what's the measured progressively motile sperm for this one? "Cc1[nH]c(/C=C2\C(=O)Nc3ccc(S(=O)(=O)Cc4c(Cl)cccc4Cl)cc32)c(C)c1C(=O)N1CCC[C@@H]1CN1CCCC1"
### Response -35.3

### Prompt So what's the measured progressively motile sperm for this one? OCCN(CCO)c1nc(N2CCCCC2)c2nc(N(CCO)CCO)nc(N3CCCCC3)c2n1 [Dipyridamole]
### Response 38.1

### Prompt So what's the measured progressively motile sperm for this one? O=C(N1CCCCC1)N1CCCCC1Cc1ccccc1 (configuration not stated)
### Response 5.81

### Prompt So what's the measured progressively motile sperm for this one? Cc1cc2c(C(C)C)c(O)c(O)c(C=O)c2c(O)c1-c1c(C)cc2c(C(C)C)c(O)c(O)c(C=O)c2c1O [Gossypol]
### Response -2.36
